The measurements presented in this section are drawn from ChEMBL document CHEMBL1201862.

Test system: NCI-H522
assayProtocol: NCI tumour cell line growth inhibition, 48 h
Activity calls are given as the source filed them. Rule as the data show it: active = GI50 up to about 1.1 µM and inactive = higher.
Give your call using only these classes: active, inactive

1) CCOP(=O)(COCCn1nc(Br)c(=O)[nH]c1=O)OCC
inactive
2) O=C1C(O)=C(CC=C(Cl)Cl)C(=O)c2ccccc21
inactive
3) Cc1ccc(S(=O)(=O)N/C(=N\O)Nc2ccc(Cl)c(Cl)c2)cc1
inactive

Enquiry: Outcome? Cc1ccc(NC(=O)c2cc3cc(/N=N/c4ccccc4C(=O)O)ccc3oc2=O)cc1
Return: inactive

Enquiry: Write down the call the test reported for this compound. Item: O=C1c2c(c3c4ccccc4[nH]c3c3[nH]c4ccccc4c23)C(=O)N1Cc1ccccc1
Return: inactive

Enquiry: Check the results log: what was the call for NS(=O)(=O)c1ccc(NC(=O)c2cccn3c(=O)c4ccccc4nc23)cc1 ?
Return: inactive

Enquiry: # outcome recorded in this test, key = C[C@@H]1C[C@]2(C[C@@H](C)C3[C@@H](CC4(C)[C@@H]5CCC6C(C)(C)OC(=O)C=C[C@]67C[C@@]5(CC[C@]34C)OO7)O2)OC1=O (stereo not given in full)
Return: inactive

Enquiry: Returns: the outcome recorded for Nc1cccc2nnccc12 in this assay.
Return: inactive

---

System: SK-MEL-2
assayProtocol: NCI tumour cell line growth inhibition, 48 h
Active and inactive are the calls of the source. No stated cut-off is given here; in the data, active = GI50 up to about 1.1 µM and inactive = higher.
Readings of GI50 for the listed molecules

1) c1cc2c(cc1NC1=NCCO1)OCO2
> 100 µM (inactive)

Enquiry: Field: GI50 (SK-MEL-2). Entry: CC(NC(=O)C(N)CC(=O)O)C(=O)OC12CC3CC(CC(C3)C1)C2 (centres undefined)
Return: > 100 µM (inactive)

Enquiry: Requested read-out GI50, target or system SK-MEL-2, entry CC(=O)O/N=C/c1ncccc1CO
Return: > 100 µM (inactive)

Enquiry: Form: Entry = Cc1nc2c(cc1C(=O)NN)c(=O)n(C)c(=O)n2C | System = SK-MEL-2 | GI50 = ____
Return: > 100 µM (inactive)

Enquiry: Lab note: need GI50 for COC(=O)c1ccccc1Nc1ccccc1C(=O)OC on SK-MEL-2, anyone have it?
Return: > 100 µM (inactive)

Enquiry: Observed GI50 on SK-MEL-2 for Cc1cn(C2CCN(CC3COC(C)(C)O3)O2)c(=O)[nH]c1=O (centres undefined) , please.
Return: > 100 µM (inactive)

Enquiry: Recall the recorded GI50 for COc1cc(/C=C2\CCC(CN(C)C)C2=O)ccc1OC(=O)c1ccccc1 (centres undefined) with SK-MEL-2 and state it.
Return: 17.9 µM (inactive)

Enquiry: Find the measured GI50: item O=C(O)c1cccc(SSc2cccc(C(=O)O)c2)c1 , target or system SK-MEL-2.
Return: > 100 µM (inactive)

Enquiry: Find GI50 (SK-MEL-2) for the entry Cn1c(N=[N+]=[N-])cc(=O)n(C)c1=O
Return: > 100 µM (inactive)

Enquiry: Given the entry NC(=O)CNC(=O)[C@@H]1C[C@@H](OCCC(=O)O)CN1C(=O)OCc1ccccc1 , what GI50 was observed with SK-MEL-2?
Return: > 100 µM (inactive)

Enquiry: Return GI50 measured with SK-MEL-2 given this molecule: Cc1nc(N2N=C(c3ccc(Cl)cc3)CCC2=O)sc1[N+](=O)[O-]
Return: > 100 µM (inactive)

Enquiry: Return GI50 measured with SK-MEL-2 given this molecule: O=C1/C(=C\c2cccc(Oc3ccccc3)c2)SC(c2ccccc2)N1Cc1ccccc1 (centres undefined)
Return: 18.2 µM (inactive)

Enquiry: # get_value(readout= GI50, system= SK-MEL-2) for c1ccc(-c2c[nH]c(SC(c3ccccc3)c3ccccc3)n2)cc1
Return: 16.9 µM (inactive)

Enquiry: Requested read-out GI50, target or system SK-MEL-2, entry COc1cccc(C2c3cc4c(cc3OC(C)(N3CCCC3)C2C)OCO4)c1OC (centres undefined)
Return: 7.74 µM (inactive)
